Reported EC50 values for a set of compounds
- assay system: human S1P1 receptor (EDG1) (Homo sapiens)
- Construct: TEV protease site + Gal4-VP16 transcription factor (only in the Tango assay cells; not described for the GTPγS membranes); expressed in transfected cells; host or cells: rat hepatoma cells (membranes, GTPγS assay) or Tango EDG1-bla U2OS cells (Tango assay)
- Sequence (P21453 whole entry, the tested form may be a part): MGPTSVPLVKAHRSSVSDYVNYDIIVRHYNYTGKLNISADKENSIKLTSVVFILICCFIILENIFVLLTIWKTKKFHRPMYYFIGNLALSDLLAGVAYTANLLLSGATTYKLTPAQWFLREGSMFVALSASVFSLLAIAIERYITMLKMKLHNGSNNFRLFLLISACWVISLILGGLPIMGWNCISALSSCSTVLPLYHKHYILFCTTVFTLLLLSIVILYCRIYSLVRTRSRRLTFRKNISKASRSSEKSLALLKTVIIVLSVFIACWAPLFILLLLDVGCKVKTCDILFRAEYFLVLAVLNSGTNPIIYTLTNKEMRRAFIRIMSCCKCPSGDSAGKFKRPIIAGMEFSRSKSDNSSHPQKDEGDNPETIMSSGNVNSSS
- test method notes: S1P1 GTPγS assay or S1P1 Tango assay (at least one of the above assays)
- Type: cell-based
- study conditions: read-out: pEC50 in at least one of the above assays (converted)

Solved entries:
For record CC(C)Oc1ncc(-c2nc(-c3ccc4c(CN5CCC(C(=O)O)CC5)c[nH]c4c3)no2)cc1Cl the listed EC50 is ≥ 1000 nM

Per the record, CC(C)Oc1ccc(-c2nc(-c3cccc4c(CCC(=O)O)c[nH]c34)no2)cc1C#N has EC50 of < 1 nM

CC(C)Oc1ncc(-c2nc(-c3cc4[nH]cc(CCC(=O)O)c4cc3F)no2)cc1Cl yielded EC50 of < 10 nM

Proceeding to the next compound to report its EC50.
Sample CC(C)Oc1ccc(-c2nc(-c3c(F)ccc4c(CCC(=O)O)c[nH]c34)no2)cc1C#N ; EC50 observed: < 1 nM

----------
- assay system: human S1P1 receptor (EDG1) (Homo sapiens)
- Construct: TEV protease site + Gal4-VP16 transcription factor (only in the Tango assay cells; not described for the GTPγS membranes); expressed in transfected cells; host or cells: rat hepatoma cells (membranes, GTPγS assay) or Tango EDG1-bla U2OS cells (Tango assay)
- test method notes: S1P1 GTPγS assay or S1P1 Tango assay (at least one of the above assays)
- Assay type: cell-based
- study conditions: read-out: pEC50 in at least one of the above assays (converted)
assay readout: EC50

Answered examples (3):
EC50 on human S1P1 receptor (EDG1) (Homo sapiens) for CC(C)Oc1ccc(-c2nc(-c3cccc4c(CCN5CC(C(=O)O)C5)cn(C)c34)no2)cc1Cl is < 10 nM

Observed EC50, human S1P1 receptor (EDG1) (Homo sapiens), CC(C)Oc1ccc(-c2nc(-c3cc4[nH]cc(CCC(=O)O)c4cc3F)no2)cc1C#N : < 1 nM

Record CC(C)Oc1ccc(-c2nc(-c3ccc4c(CCC(=O)O)c[nH]c4c3)no2)cc1C#N / human S1P1 receptor (EDG1) (Homo sapiens), EC50 recorded as < 1 nM

More entries:
Lab entry: human S1P1 receptor (EDG1) (Homo sapiens) assay, molecule CC(C)Oc1ccc(-c2nc(-c3cccc4c(CCC(=O)O)c[nH]c34)no2)cc1Cl , EC50 = < 10 nM

Readout EC50 for CC(C)Oc1ccc(-c2nc(-c3ccc(F)c4c(CCC(=O)O)cn(C)c34)no2)cc1Cl , test system human S1P1 receptor (EDG1) (Homo sapiens), was < 10 nM

Measured on human S1P1 receptor (EDG1) (Homo sapiens), CC(C)Oc1ccc(-c2nc(-c3cccc4c(CNCCC(=O)O)c[nH]c34)no2)cc1Cl has a documented EC50 of < 10 nM

Reported human S1P1 receptor (EDG1) (Homo sapiens) EC50 for item CC(C)Oc1ccc(-c2nc(-c3ccc(F)c4c(CCC(=O)O)c[nH]c34)no2)cc1C#N was < 10 nM

# EC50 measured on human S1P1 receptor (EDG1) (Homo sapiens) for item CC(C)Oc1ccc(-c2nc(-c3cccc4c(C(=O)NCCCC(=O)O)c[nH]c34)no2)cc1Cl = < 1 nM

Bench note, human S1P1 receptor (EDG1) (Homo sapiens): entry CCCCn1cc(CCC(=O)O)c2cccc(-c3noc(-c4ccc(OC(C)C)c(Cl)c4)n3)c21 , its EC50 = ≥ 1000 nM
